Every entry's value here was drawn from PubChem BioAssay (NCI).

# Tested on: HL-60(TB) leukemia
# Experiment description: NCI-60 one-dose screen, 48 h
# Measurement conditions: 10 µM unless noted
About 83,000 compounds went through this panel and 20% of them were active in at least one assay; those are over-represented in the sample as a whole. The source made the active and inactive calls. Rule for the calls: active = growth percent below 10; inactive = the rest.
The reply should be one of these categories: active, inactive

**Q:** # fetch the recorded call for COc1ccc(NC(=O)c2sc3nc(C)c(C(=O)c4ccc(OC)cc4)cc3c2N)cc1 here
**A:** active

**Q:** Param item: Cc1c(C(=O)/C=C/Nc2c(Cl)cc(S(N)(=O)=O)cc2Cl)sc2nc3ccccc3n12
**A:** inactive

**Q:** For C/C=C/C1OCC(CC)C(CCC)O1 (stereo not given) then?
**A:** inactive

**Q:** And the next one, C/C(=N/OC(=O)N(C)C)c1ccc(Cl)cc1Cl ?
**A:** inactive

**Q:** Same for CCCCCC/C=C1\CCC(CN2CCCC2)C1=O (stereo not given)
**A:** inactive

**Q:** Another compound: Cc1ccc2c(C)c3c(ccc4ccccc43)c[n+]2c1
**A:** inactive

**Q:** Now give it for COc1cc(/C=C2\COc3ccc(O)c(O)c3C2=O)cc(OC)c1 too.
**A:** active

**Q:** Do the same for COc1cc(NC(=O)c2cccc(-c3cc(=O)c4c(OC)c(OC)c(OC)cc4o3)c2)cc(OC)c1OC please
**A:** inactive

**Q:** Now give it for O=C(N/N=C(\CS(=O)(=O)c1ccccc1)c1cc2ccccc2oc1=O)c1ccccc1 too.
**A:** inactive

**Q:** Would you mind doing NNC(=O)CNc1ccc2ccccc2c1 as well?
**A:** inactive

**Q:** Also COc1ccc(-c2nc(-c3nc4ccc(OC)cc4[nH]3)cc3c2[nH]c2ccccc23)cc1 , if possible.
**A:** inactive

**Q:** Entry OCCNc1nc(NCCO)nc(Nc2ccc(C3=NN(c4cc(Cl)cc(Cl)c4)C(c4ccc(Cl)cc4)C3)cc2)n1 (stereo not given) please
**A:** inactive

**Q:** Please do the same for CC(=O)Nc1ccc(C(=O)c2ccc(S(=O)(=O)Nc3ccccc3)cc2)cc1 as well.
**A:** inactive

**Q:** Next: N#Cc1ncc(-c2ccc(C(F)(F)F)cc2)c(NCc2cc(C(F)(F)F)cc(C(F)(F)F)c2)n1
**A:** active

**Q:** Record: Nc1ccc2c(c1)Cc1cc(N)c(N)cc1-2
**A:** inactive

**Q:** Okay, and CCC(C)[C@H](NC(=O)Nc1cc(C(F)(F)F)cc(C(F)(F)F)c1)C(=O)N[C@@H](Cc1cn(C)cn1)C(=O)OC (stereo not given in full) ?
**A:** active

**Q:** What about this compound? CN1C(N2CCN(S(=O)(=O)c3ccccc3)CC2)=NS(=O)(=O)c2ccccc21
**A:** inactive

**Q:** Same again, this time with COc1ccc(S(=O)(=O)NCCCNc2nccc(-n3ccc4cccnc43)n2)cc1
**A:** inactive

**Q:** Can you check O=c1oc2ccc(I)cc2c(=O)n1-c1ccc(Br)cc1F next?
**A:** active

**Q:** What would you report for COc1ccc(-c2cc(-c3cn(-c4cccc(Cl)c4)nc3-c3ccc(OC)cc3)on2)cc1 ?
**A:** inactive

**Q:** Ok, now CCN(CC)CCNC(=O)c1ccc(NC(C)=O)cc1
**A:** inactive

**Q:** Try the compound Cc1ccc(-c2nc3ccc(Cl)cn3c2NC2CCCCC2)o1
**A:** inactive

**Q:** Check O=C1/C(=C/c2cccc(OCc3ccccc3)c2)Oc2cc(OCCN3CCCCC3)ccc21 too.
**A:** inactive

**Q:** Subsequent entry: CCCCC(NC(=O)CN1C(=O)/C(=C/C(C)=C/c2ccccc2)SC1=S)C(=O)O (stereo not given)
**A:** inactive

**Q:** Also, CN(C)c1ccc(-c2cc(-c3ccc(Nc4nc(Nc5ccccc5)nc(Nc5ccc(Cl)cc5)n4)cc3)nc(N)n2)cc1 please.
**A:** inactive

**Q:** Now give it for Cn1cc(-c2csc(-c3c[nH]c4ncccc34)n2)c2cc(Br)cnc21 too.
**A:** inactive

**Q:** And Cc1ccc(-c2nc(N3CCCNCC3)c3oc(-c4ccccc4)nc3n2)cc1 ?
**A:** active

**Q:** Here is the next compound: CCOC(=O)Nc1ccc2c(c1)C(=O)N(CC)c1ccccc1O2
**A:** active

**Q:** Same again, this time with COc1ccc2c(c1OC)CO[C@@H]2[C@H]1c2c(cc3c(c2OC)OCO3)CCN1S(=O)(=O)c1cn(C)cn1
**A:** active

**Q:** Queued: O=C(CC(NC(=O)OCc1ccccc1)C(=O)OCc1ccccc1)OCc1ccccc1 (stereo not given)
**A:** inactive

**Q:** Can you handle COc1ccc(C2CC(n3nnnc3-c3ccccc3)=NN2)cc1 (stereo not given) next?
**A:** active

**Q:** Now give it for O=C(NCCCl)NCCN1c2nc3ccccc3cc2Sc2cc3ccccc3nc21 too.
**A:** inactive

**Q:** Check CC1(C)CC[C@]2(C(=O)N3CCNCC3)CC[C@]3(C)C(=CC[C@@H]4[C@@]5(C)CCC(=O)C(C)(C)[C@@H]5CC[C@]43C)[C@@H]2C1 too.
**A:** inactive

**Q:** Moving on to the next compound: Cc1ccc(N)cc1CN1C(=O)c2ccccc2C1=O
**A:** inactive

**Q:** Try this compound too: CCn1c2ccc(O)cc2c2c(C)c3c[n+](C)ccc3c(C)c21
**A:** inactive

**Q:** Next: c1csc(-c2ccc(CNc3c4ccccc4nc4ccccc34)cc2)c1
**A:** active

**Q:** Follow-up entry: COc1ccc2c(c1)/C(=C\c1c[nH]c3ccc(OC)cc13)C(=O)N2
**A:** inactive

**Q:** Now consider CC1SC(c2ccc(Cl)cc2)N(CCc2cccs2)C1=O (stereo not given) .
**A:** active

**Q:** Proceed to CCCCCCCCCCCCCCCCCCOP(=O)(O)O
**A:** inactive

**Q:** // next record C#CC[C@@H]1C[C@]2(C)[C@H]3CC=C4[C@H]5[C@@H](C)[C@H](C)CC[C@]5(C(=O)NCCCN5CCN(CCCN)CC5)CC[C@@]4(C)[C@]3(C)CC[C@H]2C(C)(C)[C@H]1OC(C)=O
**A:** active

* * *

# Test system: HL-60(TB) leukemia
# Experiment description: NCI-60 one-dose screen, 48 h
# Measurement conditions: 10 µM unless noted
About 83,000 compounds went through this panel and 20% of them were active in at least one assay; those are over-represented in the sample as a whole. The source made the active and inactive calls. How the source made its calls: active means growth percent below 10; inactive means the rest.
The reply should be one of these categories: active, inactive

**Q:** Answer briefly: the call reported for CC(=O)N1N=C(c2ccc(F)cc2)CC1c1sc(N(C)Cc2ccccc2)nc1Cl (stereo not given) in this assay.
**A:** inactive

**Q:** Likewise for Cc1cc(C)n(C(=O)CSc2nc3sc4c(c3c(=O)n2-c2ccccc2)CCCCC4)n1 ?
**A:** inactive

**Q:** Likewise for C=C1CCC2C3(C)COC(c4cccc(Cl)c4)OC3CCC2(C)C1/C=C/C1=CCOC1=O (stereo not given) ?
**A:** inactive

**Q:** Moving on to the next compound: CS(=O)(=O)Nc1cc(-c2ccc3ncnc(Nc4ccc5c(cnn5Cc5ccc(F)cc5)c4)c3c2)cnc1Cl
**A:** inactive

**Q:** What about CCCCCCCC/C=C\CCCCCCCCOc1ccccc1CC(=O)NCC[N+]1(C)CCCCC1 ?
**A:** active

* * *

# System: HL-60(TB) leukemia
# Experiment description: NCI-60 one-dose screen, 48 h (100 = growth as untreated, 0 = no growth, -100 = all killed)
# Measurement conditions: 10 µM unless noted
This is part of a sample that, as a whole, favours compounds with a hit. Of some 83,000 tested, about 20% had one in any assay.
Note: every record was labeled by where its growth sits among 0 = under 40%, 1 = from 40% up to 90%, 2 = 90% and over

**Q:** // return the class label for CN1CCN(CC(=O)Nc2cccc(-n3cc(-c4ccncc4)c(-c4ccc(Cl)c(O)c4)n3)c2)CC1
**A:** 0

**Q:** Proceed to CO[C@H]1/C=C/O[C@@]2(C)Oc3c(C)c(O)c4c(O)c(c(/C=N/N5C(C)CN(Cc6ccccc6)CC5C)c(O)c4c3C2=O)NC(=O)/C(C)=C\C=C\[C@H](C)[C@H](O)[C@@H](C)[C@@H](O)[C@@H](C)[C@H](OC(C)=O)[C@@H]1C (stereo partly specified)
**A:** 2

**Q:** Can you check CN(C)CCCC1(c2ccc(F)cc2)OCc2cc(-c3csc4ccccc34)ccc21 (stereo unspecified) next?
**A:** 0

**Q:** Follow-up item: O=C(N/N=C/c1ccc(OC(F)F)c(OC2CCCC2)c1)c1cnn2c1NC(c1ccccc1)C2 (stereo unspecified)
**A:** 2

**Q:** And the next one, Oc1ccccc1OB(Oc1ccccc1O)N(CCCl)CCCl ?
**A:** 0

**Q:** // next record CCN(CC)CCCC(C)Nc1c(-c2ccccc2)cnc2cc(Cl)ccc12 (stereo unspecified)
**A:** 1

**Q:** // query: CC1(C)CC[C@]2(C(=O)O)CC[C@]3(C)C(=CC[C@@H]4[C@@]5(C)C[C@@H](Cc6cn([C@@H]7O[C@H](CO)[C@@H](O)[C@H](O)[C@H]7O)nn6)[C@H](O)C(C)(C)[C@@H]5CC[C@]43C)[C@@H]2C1
**A:** 2

**Q:** Another compound: O=C(NCCNc1nccc(-c2c(-c3cccc(O)c3)nc3sccn23)n1)c1ccc(N2CCOCC2)c(C(F)(F)F)c1
**A:** 2

**Q:** # repeat for CC(C)(C)CC(C)(C)Nc1c(-c2ccc(-c3ccccc3)cc2)nc2cnccn12
**A:** 2

**Q:** Also need C/C(=C\CCc1ccoc1)CC/C=C(\C)CCCN1CCC(CO)CC1 , thanks.
**A:** 0

**Q:** Next entry: NC(=NCCCOc1ccc(F)cc1)Nc1ccc(I)cc1
**A:** 1

**Q:** Param item: CC(=O)n1cc([C@H]2CC[C@H](c3cn(C(C)=O)c4ccccc34)c3c2[nH]c2ccccc32)c2ccccc21
**A:** 2

**Q:** // query: COc1ccc(C(=O)/C=C/c2cc(-c3ccc4c(c3)OCO4)n[nH]2)cc1OC
**A:** 1

**Q:** Please do the same for NC1(C(=O)N[C@@H](CCO)c2ccc(Cl)cc2)CCN(c2ncnc3[nH]ccc23)CC1 as well.
**A:** 1

**Q:** Now this one: Cc1cc2c(-c3nc4ccccn4c3NC34CC5CC(CC(C5)C3)C4)c(O)c(O)cc2c(O)c1-c1c(C)cc2c(-c3nc4ccccn4c3NC34CC5CC(CC(C5)C3)C4)c(O)c(O)cc2c1O
**A:** 0
